# Test system: Staphylococcus aureus
# assay_procedure: Antibacterial activity against Staphylococcus aureus assessed as growth inhibition incubated for 24 hrs using mixed anhydride
# Format: functional
outcome_measure: MIC (µg/mL)

Previously resolved entries follow.
| structure_as_smiles | unit_spec | readout_value |
| --- | --- | --- |
| CCOC(=O)c1c(CCC(=O)N[C@@H]2C(=O)N3[C@@H]2SC(C)(C)[C@@H]3C(=O)[O-])[n+]([O-])c2ccccc2[n+]1[O-].[Na+] | µg/mL | 10 |
| Cc1c(C)[n+]([O-])c2cc(C(=O)N[C@@H]3C(=O)N4[C@@H]3SC(C)(C)[C@@H]4C(=O)[O-])ccc2[n+]1[O-].[Na+] | µg/mL | 100 |
| Cc1c(CC(=O)N[C@@H]2C(=O)N3C(C(=O)O)=C(C[O-])CS[C@H]23)[n+]([O-])c2ccccc2[n+]1[O-].[Na+] | µg/mL | 1000 |
| CC1(C)S[C@@H]2[C@H](NC(=O)CCCc3c(-c4ccccc4)[n+]([O-])c4ccccc4[n+]3[O-])C(=O)N2[C@H]1C(=O)[O-].[Na+] | µg/mL | 10 |

a: Cc1c(CC(=O)N[C@@H]2C(=O)N3[C@@H]2SC(C)(C)[C@@H]3C(=O)[O-])[n+]([O-])c2ccccc2[n+]1[O-].[Na+]
b: CC1(C)S[C@@H]2[C@H](NC(=O)Cc3ccccc3)C(=O)N2[C@H]1C(=O)O
Task item: Between these two entries, a and b , state which has the higher MIC. Your choice should be expressed through its label.
Reply: a
(a: 100 µg/mL, b: 10 µg/mL)
